Entries and their BASOPHIL
Organism: Rattus norvegicus
ASSAY_EXPLANATION: DrugMatrix - Regimen: Daily Repeat
Format: toxicity, organism-based, Sprague-Dawley
Parameters: regimen Daily Repeat, gender Male, age 6-8 weeks
STUDY_CONDITIONS: in vivo, po, 0 mg/kg, 120 h, tissue Blood, route oral GAVAGE, dose level Control, time 5 day, […]
Give just the numeric value; % need not be written.

These recorded examples may help you get a feel for the data.
Ask: Using the record for COc1ccc2[nH]c([S+]([O-])Cc3ncc(C)c(OC)c3C)nc2c1 (configuration not stated) , report its BASOPHIL.
Result: 0

Ask: Can you handle CCOC(=O)C1=C(C)NC(C)=C(C(=O)OC)C1c1cccc([N+](=O)[O-])c1 (configuration not stated) next?
Result: 0

Ask: Can you handle O=C(c1ccc(OCCN2CCCCC2)cc1)c1c(-c2ccc(O)cc2)sc2cc(O)ccc12 next?
Result: 0

Ask: Can you handle COCCOC(=O)C1=C(C)NC(C)=C(C(=O)OC(C)C)C1c1cccc([N+](=O)[O-])c1 (configuration not stated) next?
Result: 0

Ask: Can you handle CCCCCCCCc1ccc(O)cc1 next?
Result: 0

New cases:
Ask: Using the record for CC(=O)Nc1cccc(O)c1 , report its BASOPHIL.
Result: 0

Ask: Can you handle CC/C(=C(/CC)c1ccc(O)cc1)c1ccc(O)cc1 next?
Result: 0

Ask: Can you handle CC(C)Cc1ccc(C(C)C(=O)O)cc1 (configuration not stated) next?
Result: 0

---

Species on record: Rattus norvegicus
ASSAY_EXPLANATION: DrugMatrix - Regimen: Daily Repeat
Assay type: toxicity, organism-based, Sprague-Dawley
Parameters: regimen Daily Repeat, gender Male, age 6-8 weeks
STUDY_CONDITIONS: in vivo, po, 10 mg/kg, 120 h, tissue Plasma, route oral GAVAGE, dose level Low, time 5 day, […]
Entries and their CREATININE
Give just the numeric value; mg/dL need not be written.

These recorded examples may help you get a feel for the data.
Ask: Using the record for CC(C)CC(N(C)C)C1(c2ccc(Cl)cc2)CCC1 (centres undefined) , report its CREATININE.
Result: 0.23

Ask: Can you handle COCCOC(=O)C1=C(C)NC(C)=C(C(=O)OC(C)C)C1c1cccc([N+](=O)[O-])c1 (centres undefined) next?
Result: 0.16

Ask: Can you handle CCOC(=O)C1=C(C)NC(C)=C(C(=O)OC)C1c1cccc([N+](=O)[O-])c1 (centres undefined) next?
Result: 0.17

Please examine the following record next.
Ask: Using the record for COc1ccc2cc([C@H](C)C(=O)O)ccc2c1 , report its CREATININE.
Result: 0.18

---

Organism: Rattus norvegicus
ASSAY_EXPLANATION: DrugMatrix - Regimen: Daily Repeat
Assay type: toxicity, organism-based, Sprague-Dawley
Parameters: regimen Daily Repeat, gender Male, age 6-8 weeks
STUDY_CONDITIONS: in vivo, po, 0 mg/kg, 120 h, tissue Plasma, route oral GAVAGE, dose level Control, time 5 day, vehicle .5 % CMC
REPORTED_PROPERTY: BLOOD UREA NITROGEN (mg/dL)
Give just the numeric value; mg/dL need not be written.

These recorded examples may help you get a feel for the data.
Ask: Using the record for OC(CCN1CCCCC1)(c1ccccc1)C1CCCCC1 (stereo unspecified) , report its BLOOD UREA NITROGEN.
Result: 15.5

Ask: Can you handle CC(=O)CC(c1ccccc1)c1c(O)c2ccccc2oc1=O (stereo unspecified) next?
Result: 18.17

Ask: Can you handle CN1C(=O)COc2c(C(=O)NC3CN4CCC3CC4)cc(Cl)cc21 (stereo unspecified) next?
Result: 20.5

Ask: Can you handle C#C[C@]1(O)CC[C@H]2[C@@H]3CCc4cc(OC)ccc4[C@H]3CC[C@@]21C next?
Result: 16.67

Ask: Can you handle O=C1CCC(N2C(=O)c3ccccc3C2=O)C(=O)N1 (stereo unspecified) [THALIDOMIDE] next?
Result: 16.67

New cases:
Ask: Using the record for C[C@](O)(CS(=O)(=O)c1ccc(F)cc1)C(=O)Nc1ccc(C#N)c(C(F)(F)F)c1 [(R)-BICALUTAMIDE] , report its BLOOD UREA NITROGEN.
Result: 18

Ask: Can you handle Clc1ccc2c(c1)C(N1CCNCC1)=Nc1ccccc1O2 next?
Result: 17.67

Ask: Can you handle CC(C)[C@H]1CC[C@H](C(=O)N[C@H](Cc2ccccc2)C(=O)O)CC1 [NATEGLINIDE] next?
Result: 20.67

Ask: Can you handle CNC(=C[N+](=O)[O-])NCCSCc1ccc(CN(C)C)o1 next?
Result: 16.67

Ask: Can you handle N=C(N)NC(=O)c1nc(Cl)c(N)nc1N [AMILORIDE] next?
Result: 16

Ask: Can you handle Cc1onc(-c2ccccc2)c1-c1ccc(S(N)(=O)=O)cc1 next?
Result: 14.17

Ask: Can you handle CN1CCC(=C2c3ccccc3C=Cc3ccccc32)CC1 next?
Result: 15.5

Ask: Can you handle CO[C@H]1/C=C/O[C@@]2(C)Oc3c(C)c(O)c4c(c3C2=O)C2=NC3(CCN(CC(C)C)CC3)NC2=C(NC(=O)/C(C)=C\C=C\[C@H](C)[C@H](O)[C@@H](C)[C@@H](O)[C@@H](C)[C@H](OC(C)=O)[C@@H]1C)C4=O next?
Result: 16.67

Ask: Can you handle C[C@]1(Cn2ccnn2)[C@H](C(=O)O)N2C(=O)C[C@H]2S1(=O)=O next?
Result: 20

Ask: Can you handle CC[C@@H](CO)NCCN[C@@H](CC)CO next?
Result: 16

Ask: Can you handle O=[N+]([O-])c1ccccc1 next?
Result: 13

Reference source for all entries: ChEMBL document CHEMBL3885881
